Test system: mono-tropic (HXBc2) and dual tropic (89.6 and KB9) viruses
Assay: Inhibition of entry on cells co-expressing CD4 and CXCR4
Format: cell-based, HIV-1
Conditions: Human immunodeficiency virus 1, read-out: IC50 of entry inhibition
metric: IC50

| compound | measured result |
| --- | --- |
| N=C(N)N[C@H]1Cc2ccccc2[C@@H]1NC(=O)C(=O)Nc1ccc(Cl)c(F)c1 [DMJ-I-228] | 6 to 30 µM |
| N=C(N)N[C@@H]1Cc2ccccc2[C@H]1NC(=O)C(=O)Nc1ccc(Cl)c(F)c1 [AWS-I-169] | 6 to 30 µM |

====

Target: gp120 from the YU2 strain (Human immunodeficiency virus type 1 group M subtype B)
Experiment: biochemical
Format: binding, HIV-1
Details: ITC, 25° C.; read-out: Kd (binding affinity)

| compound | system | Kd, nM |
| --- | --- | --- |
| N=C(N)N[C@H]1Cc2ccccc2[C@@H]1NC(=O)C(=O)Nc1ccc(Cl)c(F)c1 [DMJ-I-228] | gp120 from the YU2 strain (Human immunodeficiency virus type 1 group M subtype B) | 250 |

====

Molecular target: gp120 from the YU2 strain (Human immunodeficiency virus type 1 group M subtype B, UniProt P35961)
Experiment: biochemical
Format: binding, HIV-1
Settings: ITC
metric: binding affinity compared to TS-II-224 (2)

| compound | measured result |
| --- | --- |
| N=C(N)N[C@@H]1Cc2ccccc2[C@H]1NC(=O)C(=O)Nc1ccc(Cl)c(F)c1 | comparable affinity |
| N=C(N)N[C@H]1Cc2ccccc2[C@@H]1NC(=O)C(=O)Nc1ccc(Cl)c(F)c1 | comparable affinity |

====

Molecular target: gp120 from the YU2 strain (Human immunodeficiency virus type 1 group M subtype B)
Experiment: biochemical
Format: binding, HIV-1
Details: Example 24 table; read-out: Kd
Method: The calorimetric cell (approximately 1.4 mL), containing gp120 from the YU2 strain dissolved in PBS (Roche Diagnostics GmbH, Mannheim, Germany), pH 7.4 with 2% DMSO, was titrated with the different inhibitors dissolved in the same buffer. Analogue binding to full-length gp120 from the YU2 strain was next characterized by isothermal titration calorimetry to assess the enthalpic and entropic contributions to binding affinity (FIG. 7 and FIG. 3c). […] Schön, A. et al. Biochemistry 45, 10973-80 (2006). […]
pKd: −log10 of the molar value.

| molecule | pKd |
| --- | --- |
| CNC(=O)C(NC(=O)C(=O)Nc1ccc(Cl)c(F)c1)c1ccccc1 (stereo not shown) | 5.60 |

====

Tested on: clade C Env-pseudoviruses
Experiment: Neutralization of Env-pseudoviruses in TZM-bl cells, clade C
Assay type: cell-based, HIV-1
Details: Human immunodeficiency virus 1, TZM-bl, read-out: IC50 GMT
Protocol: HIV-1 Env-pseudoviruses were prepared by transfecting 293T cells with 10 μg of rev/env expression plasmid and 30 μg of an env-deficient HIV-1 backbone vector (pSG3Δenv), using Fugene 6 transfection reagents (Invitrogen). […] Neutralization was measured using HIV-1 Env-pseudoviruses to infect TZM-b1 cells as described previously (Li et al., 2005; Li et al., 2006; Seaman et al., 2010; Wu et al., 2009) with minor modifications. […]
Where a name gives a salt, the structure may show the parent alone.
metric: IC50 (µM)

| molecule | units text | measured result |
| --- | --- | --- |
| N=C(N)NC[C@H]1Cc2ccccc2[C@@H]1NC(=O)C(=O)Nc1ccc(Cl)c(F)c1 [(+)-4, formate salt] | µM | 14 |
